Hello, the source for this data is ChEMBL document CHEMBL1157424, in case you need it.

assay: Toxicity in Plasmodium vinckei petteri infected CD mice (Mus musculus) assessed as mortality at 1 mg/kg/day, intraperitoneally measured on day 1; assay type: organism-based; set-up: route intraperitoneal; conditions: in vivo, ip, read-out: INH
ASSAY_METRIC: mortality (%)
Give just the number in %; leave the unit off.

Prompt: Can you share its mortality? I mean this compound: CCN(CC)CCCC(C)Nc1ccnc2cc(Cl)ccc12 (stereo unspecified)
Response: 0

---

assay: Toxicity in Plasmodium vinckei petteri infected CD mice (Mus musculus) assessed as mortality at 10 mg/kg/day, intraperitoneally measured on day 1; type: organism-based; design: route intraperitoneal; conditions: in vivo, ip, read-out: INH
ASSAY_METRIC: mortality (%)
Just the number please, in %, no unit attached.

Prompt: # input compound: CCN(CC)CCCC(C)Nc1ccnc2cc(Cl)ccc12 (stereo unspecified) [CHLOROQUINE] ; wanted: its mortality
Response: 0

---

assay: Toxicity in Plasmodium vinckei petteri infected CD mice (Mus musculus) assessed as mortality at 1 mg/kg/day, intraperitoneally measured on day 5; assay type: organism-based; parameters: route intraperitoneal; conditions: in vivo, ip, read-out: INH
ASSAY_METRIC: mortality (%)
Reply numerically in %, unit not repeated.

Prompt: // query mortality value for entry CCN(CC)CCCC(C)Nc1ccnc2cc(Cl)ccc12 (stereo unspecified) [CHLOROQUINE]
Response: 0

---

assay: Toxicity in Plasmodium vinckei petteri infected CD mice (Mus musculus) assessed as mortality at 20 mg/kg/day, intraperitoneally measured on day 5; format: organism-based; parameters: route intraperitoneal; conditions: in vivo, ip, read-out: INH
Assign mortality to each entry below.
Give a bare numeral; the unit % is implied.

Prompt: // query mortality value for entry C[C@@]12CCC[C@]3(C)c4cc5c(cc4C(=O)[C@](O)(OC1)[C@H]23)C(=O)C=CC5=O
Response: 100

Prompt: Which mortality is reported for this compound? C[C@@]12CCC[C@]3(C)c4cc5c(cc4C(=O)[C@](O)(OC1)[C@H]23)C(=O)C1=C(NCCS1(=O)=O)C5=O
Response: 80

---

assay: Toxicity in Plasmodium vinckei petteri infected CD mice (Mus musculus) assessed as mortality at 10 mg/kg/day, intraperitoneally measured on day 5; type: organism-based; set-up: route intraperitoneal; settings: in vivo, ip, read-out: INH
ASSAY_METRIC: mortality
Give the value; after it, write the unit.

Prompt: Give the measured mortality of CCN(CC)CCCC(C)Nc1ccnc2cc(Cl)ccc12 (stereo unspecified) .
Response: 0%

---

I'd appreciate it if you could supply mortality values for the items below.
test: Toxicity in Plasmodium vinckei petteri infected CD mice (Mus musculus) assessed as mortality at 5 mg/kg/day, intraperitoneally measured on day 15; type: organism-based; parameters: route intraperitoneal; settings: in vivo, ip, read-out: INH
Note: state the figure and append the unit.

Prompt: mortality for C[C@@]12CCC[C@]3(C)c4cc5c(cc4C(=O)[C@](O)(OC1)[C@H]23)C(=O)C1=C(NCCS1(=O)=O)C5=O ?
Response: 60%

Prompt: Which value of mortality has been reported for C[C@@]12CCC[C@]3(C)c4cc5c(cc4C(=O)[C@](O)(OC1)[C@H]23)C(=O)C=CC5=O in the records?
Response: 40%

---

experiment: Toxicity in Plasmodium vinckei petteri infected CD mice (Mus musculus) assessed as mortality at 20 mg/kg/day, intraperitoneally measured on day 15; assay type: organism-based; parameters: route intraperitoneal; conditions: in vivo, ip, read-out: INH
For each of the compounds below, state its mortality.
Number in %, nothing else.

Prompt: For the compound C[C@@]12CCC[C@]3(C)c4cc5c(cc4C(=O)[C@](O)(OC1)[C@H]23)C(=O)C1=C(NCCS1(=O)=O)C5=O , what mortality is on record?
Response: 100

Prompt: Any idea what mortality was measured for C[C@@]12CCC[C@]3(C)c4cc5c(cc4C(=O)[C@](O)(OC1)[C@H]23)C(=O)C=CC5=O ?
Response: 100
